Molecular target: T1, Recombinant human PSGL-1(ECD)-hFc1 (R&D Systems, Cat. 3345-PS) (human, UniProt Q14242 42-305)
T1 construct: Bought; Gln42-Val295 counted on AAC50061; also called PSGL-1-Fc; PSGL-1-hFc1 chimera; not shown: human IgG1 Fc, Pro100-Lys330
T1 sequence: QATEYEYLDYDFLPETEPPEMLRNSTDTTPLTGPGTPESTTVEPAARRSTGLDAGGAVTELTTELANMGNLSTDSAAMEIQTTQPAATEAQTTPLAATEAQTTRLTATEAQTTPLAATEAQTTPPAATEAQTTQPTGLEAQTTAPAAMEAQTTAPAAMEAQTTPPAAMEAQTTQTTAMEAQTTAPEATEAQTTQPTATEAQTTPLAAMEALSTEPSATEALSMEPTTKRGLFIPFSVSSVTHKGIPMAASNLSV
Test: blocking ELISA vs L-selectin-Fc
Entries and their pIC50
Friendly reminder that pIC50 comes from taking -log10 of the concentration in mol/L.

In the examples that follow, each entry is paired with its recorded pIC50.
{"binder": "16L15 (antibody, V domains shown, From mouse immunisation; only variable domains given) VH: DVKLVESGGGLVKLGGSLKLSCAASGFTFSSYYMSWVRQTPEKRLEWVATISNGGGSTYYPDSVKDRFTISRDNAKNTLYLQMSSLNSEDTAVYYCAKPLYYSNPWFAYWGQGTLVTVSA VL: DVLLTQTPLSLPVSLGDQASISCRSSQSIVHSNGNTYLEWYLQKPGQSPKLLIYKVSNRFSGVPDRFSGSGSGTDFTLKISRVEAEDLGVYYCFQGSHVPRTFGGGTKLEIK", "pIC50": 8.05}
{"binder": "43B6 (antibody, V domains shown, Control anti-PSGL-1 mAb, recombinant; only variable domains given; also called 43B3) VH: EVQLQQSGPDLVKPGALVKISCKASGYSFTAYYIHWVKQSHGKSLEWIGRVNPNTGGTSYNPKFKGKAILNVDKSSSTAYMELRSLTSEDSAVYYCARSGSPYYRYDDWGQGTTLTVSS VL: ENVLTQSPAIMSASPGEKVTMTCRASSTVNSTYLHWFQQKSGASPKLWIYGSSNLASGVPARFSGSGSGTSYSLTISSVEAEDAATYYCQQYSGYPLTFGAGTTLELK", "pIC50": 8.22}
{"binder": "18F02 (antibody, V domains shown, From mouse immunisation; only variable domains given) VH: QVQLQQPGAELVKPGASVKLSCKASGYTFTSYWMHWVKQRPGQGLEWIGMIHPNSGRTNYNEKFKSKATLTVDKSSSTAYMQLSSLTSEDSAVYYCARSDYWGQGTTLTVSS VL: DIVMTQAAFSNPVTLGTSASISCRSSKSLLHSDGITYLYWFLQRPGQSPQLLIYRMSNLASGVPDRFSGSGSGTDFTLRISRVEAEDVGVYYCAQMLEFPRTFGGGTKLEIK", "pIC50": 8.00}
{"binder": "19I01 (antibody, V domains shown, From mouse immunisation; only variable domains given; also called 19101) VH: EVQLVESGGGLVKPGGSRKLSCAASGFTFSDYGMHWVRQAPEKGLEWVAYISSGSSTIYYADTVKGRFTISRDNAKNTLFLQMTSLRSEDTAMYYCARGVDGYWGQGTTLTVSS VL: DVVMTQTPLSLPVSLGDQASISCRSSQSLVHSNGNTYLHWYLQKPGQSPKFLIYKVSNRFSGVPDRFSGSGSGTDFTLKISRVEAEDLGVYFCSQTTHVPLTFGAGTKLELK", "pIC50": 8.30}

// sample 10F01 (antibody, IgG4, V domains shown) VH: EVQLVQSGGGLVQPGGSLRLSCAASGFTFSSYAMSWVRQAPGKGLEWVSALRGGDGGTYHADSVKGRFTISGDSSKNTLYLQMNSLRAEDTAVYYCARRMVGAAYAFDIWGQGTMVTVSS VL: LPVLTQPHSVSESPGKTVTISCTRSSGSIADNFVQWYRQRPGSAPTTVIYEGDQRPSGVPGRFSGSIDSSSNSASLTISGLQTDDEADYYCQSFDSYNRRTHVVFGGGTKLTVL , its pIC50 was 8.22

Data credit: patent US20220396632A1
